B1: glmS ribozyme (parent)
chain: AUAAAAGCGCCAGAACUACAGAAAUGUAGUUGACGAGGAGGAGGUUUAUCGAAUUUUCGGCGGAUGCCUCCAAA

variants of: B1; assay: self-cleavage kobs at 10000 uM GlcN6P; higher = faster cleavage; RNA array; settings: with glucosamine-6-phosphate
Variants at the floor of the assay were thinned out.
What self-cleavage kobs at 10000 uM GlcN6P was measured for each of the following?
One number for each entry, in s⁻¹.

mutation-code	self-cleavage kobs at 10000 uM GlcN6P / s⁻¹
A36U U49A	8.19e-05
U47C U55G	0.00347
A53U C70U	0.0335
A33C A42G	0.000716
U45C U65A C67G	0.000996

State recorded self-cleavage kobs at 10000 uM GlcN6P for all listed variants.
1. U31G U55C
2. U54A U56G
3. C16A A39U U54C
4. U55A

Reply |
1: 0.00884; 2: 0.0131; 3: 0.000811; 4: 0.0555

Look up self-cleavage kobs at 10000 uM GlcN6P for the entries below, preserving their order.
1. G13A U46A
2. A14G U47G
3. C11A C16U
4. U30G G44U

Reply |
4.05e-05
0.0324
0.000151
4.23e-05

Source: the supplement of paper PMC7125110
